- ASSAY_EXPLANATION: Inhibition of Saccharomyces cerevisiae alpha-glucosidase after 10 mins
Give log10(IC50) for every item shown.
Lab note - IC50 converted to log10 from values in µM.

Here is how some compounds turned out for log10(IC50).
O=C1c2ccccc2C(=O)N1CCCCCCCCCCOc1ccc(C(F)(F)F)cc1[N+](=O)[O-] : 0.12
O=C1c2ccccc2C(=O)N1CCCCCCCCCCOc1cccc([N+](=O)[O-])c1 : 0.03
Cc1cc(Cl)c([N+](=O)[O-])c(C)c1OCCCCCCCCCCN1C(=O)c2ccccc2C1=O : 0.56
O=C1c2ccccc2C(=O)N1CCCOc1ccccc1 : 2.38
O=C1c2ccccc2C(=O)N1CCCCCCCCCCOc1cccc(Cl)c1 : 0.04

Here are 6 compounds. What values of log10(IC50) were reported for them?
1. O=C1c2ccccc2C(=O)N1CCCCOc1ccccc1
2. O=C1c2ccccc2C(=O)N1CCCCCCCCCCOc1ccccc1
3. Cc1cccc(C)c1OCCCCCCCCCCN1C(=O)c2ccccc2C1=O
4. Cc1cc(Cl)ccc1OCCN1C(=O)c2ccccc2C1=O
5. O=C1c2ccccc2C(=O)N1CCCCCCCCCCOc1ccccc1[N+](=O)[O-]
6. O=C1c2ccccc2C(=O)N1CCCCCCCCOc1ccccc1

[1.52, 0.40, 0.51, 1.17, 0.25, 0.81]

====

- ASSAY_EXPLANATION: Inhibition of Saccharomyces cerevisiae alpha-glucosidase after 10 mins
MEASURED_ENDPOINT: pIC50
Numbers only, as −log10 of the molar value.

Here is how some compounds turned out for pIC50.
O=C1c2ccccc2C(=O)N1CCCCCCCCCCOc1ccc(Cl)cc1[N+](=O)[O-] : 6.32
Cc1cc([N+](=O)[O-])cc(C)c1OCCCCCCCCCCN1C(=O)c2ccccc2C1=O : 5.88
O=C1c2ccccc2C(=O)N1CCCCCCCCCCOc1ccc(Cl)c(Cl)c1 : 6.00

Here are 6 compounds. What values of pIC50 were reported for them?
1. O=C1c2ccccc2C(=O)N1CCCCCCCCCOc1ccccc1
2. Cc1ccc(OCCCCCCCCCCN2C(=O)c3ccccc3C2=O)cc1
3. O=C1c2ccccc2C(=O)N1CCCCCCCCCCOc1ccc(C(F)(F)F)cc1
4. O=C1c2ccccc2C(=O)N1CCCOc1ccc(Cl)cc1
5. O=C1c2ccccc2C(=O)N1CCCCCCCCCCOc1ccc([N+](=O)[O-])cc1
6. O=C1c2ccccc2C(=O)N1CCCCCCCCCCOc1cc(Cl)c(Cl)cc1[N+](=O)[O-]

[5.52, 5.68, 6.08, 4.23, 6.07, 6.28]

Report pIC50 for "Cc1cc([N+](=O)[O-])c(Cl)cc1OCCCCCCCCCCN1C(=O)c2ccccc2C1=O" please. 6.19

====

- ASSAY_EXPLANATION: Inhibition of Saccharomyces cerevisiae alpha-glucosidase after 10 mins
Entries whose IC50 is below 20 µM take 1 (yes); entries at or above 20 µM take 0 (no).

As a guide, the following entries are already answered.
O=C1c2ccccc2C(=O)N1CCOc1ccc(Cl)cc1 : 0 (no)
Cc1cc(Cl)cc(C)c1OCCN1C(=O)c2ccccc2C1=O : 1 (yes)
O=C1c2ccccc2C(=O)N1CCCCCCCCCCOc1c(Cl)cc(Cl)cc1[N+](=O)[O-] : 1 (yes)
Cc1cc(Cl)ccc1OCCCN1C(=O)c2ccccc2C1=O : 1 (yes)

Now examine the next entry.
In plain terms, does "O=C1c2ccccc2C(=O)N1CCOc1ccccc1" come in under 20 µM for IC50? 0 (no)

Measured values drawn from ChEMBL document CHEMBL1212886 for this set.
